Target: Adenosine receptor A1 (Homo sapiens)
Sequence (P30542 whole entry): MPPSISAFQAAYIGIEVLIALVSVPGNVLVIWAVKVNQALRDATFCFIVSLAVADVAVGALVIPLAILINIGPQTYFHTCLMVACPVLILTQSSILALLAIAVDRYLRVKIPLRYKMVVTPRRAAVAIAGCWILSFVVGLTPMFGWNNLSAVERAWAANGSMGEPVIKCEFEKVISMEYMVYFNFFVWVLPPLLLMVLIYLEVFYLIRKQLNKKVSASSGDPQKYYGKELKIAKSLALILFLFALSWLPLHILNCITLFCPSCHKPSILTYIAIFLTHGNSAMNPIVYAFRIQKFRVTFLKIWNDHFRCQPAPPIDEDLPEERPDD
Experiment: Displacement of [3H]DPCPX from human Adenosine A1 receptor expressed in CHO cells; range 509-712
Type: cell-based
measurement.label: Ki
I'd appreciate it if you wrote the number followed by its unit.

Any idea what its Ki is? The compound is "CCn1cc2c(nc(NC(=O)Nc3ccc(F)cc3)n3nc(-c4ccco4)nc23)n1"
602 nM

FYI, the data here is from ChEMBL document CHEMBL1136016.
